Data credit: patent US20260242478A1

- System Tested: anti-CD28 scFv (VH - linker 1 - VL) (biotinylated (site not stated))
- Sequence (scFv, as listed by the source): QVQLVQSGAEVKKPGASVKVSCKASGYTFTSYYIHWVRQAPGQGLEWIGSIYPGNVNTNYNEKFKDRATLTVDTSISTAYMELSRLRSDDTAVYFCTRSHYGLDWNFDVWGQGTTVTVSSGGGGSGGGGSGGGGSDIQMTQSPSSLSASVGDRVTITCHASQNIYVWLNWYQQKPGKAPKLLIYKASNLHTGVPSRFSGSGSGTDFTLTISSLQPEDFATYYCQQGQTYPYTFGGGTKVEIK
- Method Summary: phage ELISA; biotinylated anti-CD28 scFv on neutravidin plate, clonal phage supernatant, anti-M13 HRP detection;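 further: before phage addition, wells were pre-incubated with blocking buffer plus soluble CD28 protein, or blocking buffer only, with no wash in between, signal reflects phage remaining bound after washing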
Attribute Measured: CD28 scFv signal
Numbers only.

Guide cases for CD28 scFv signal, answers given:
binder="MDWCPSDMWHECYA [Phage-194]" attribute_measured="CD28 scFv signal" recorded_result=2.47
binder="MDWCPKHMWFMCFN [Phage-195]" attribute_measured="CD28 scFv signal" recorded_result=2.4
binder="IGKLTLCLNADLVI [Phage-187]" attribute_measured="CD28 scFv signal" recorded_result=0.116
binder="MDWCPPYLWYECFA [Phage-172]" attribute_measured="CD28 scFv signal" recorded_result=0.692
binder="MDWCPMDMWVNCFN [Phage-193]" attribute_measured="CD28 scFv signal" recorded_result=2.52
binder="MDWCPWILWNECFN [Phage-179]" attribute_measured="CD28 scFv signal" recorded_result=0.581
binder="MDWCPKHLWNECFN [Phage-174]" attribute_measured="CD28 scFv signal" recorded_result=0.663
binder="MHWCPRSLWNECYF [Phage-182]" attribute_measured="CD28 scFv signal" recorded_result=0.456

Below are some binders; for each one, tell me its CD28 scFv signal.
1. IDWCPRDLWALCFN [Phage-183]
2. DVWCPKYMWSLCFN [Phage-192]

0.37
2.53

Please give CD28 scFv signal, item by item, for the list that follows.
1. MDWCPAYLWAECFS [Phage-175]
2. MDWCPVSLWDHCFN [Phage-177]
3. QDWCPTYLWHHCFN [Phage-186]
4. MDWCPRYMWYQCFS [Phage-196]
5. LDWCPRDLWHVCFF [Phage-178]
6. MDWCPMNLWSECFN [Phage-173]

1. 0.64
2. 0.616
3. 0.123
4. 2.36
5. 0.61
6. 0.67
